B1: Twister Ribozyme (parent)
chain: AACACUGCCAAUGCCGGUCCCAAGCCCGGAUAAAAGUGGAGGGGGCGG

Variants of: B1
Assay: self-cleavage, relative activity (ratio to wild type); higher = more cleavage; co-transcriptional
# self-cleavage binned as category 1 = under 0.08, category 2 = from 0.08 up to 0.2, category 3 = 0.2 and over

mutation_id: A1U A23G
cat: category 1
//
mutation_id: C26A A30G
cat: category 3
//
mutation_id: A10G A32G
cat: category 3

Q. Which class is correct for the following variant? C20G U31C
A. category 2

Q. Class for A10C A40G ?
A. category 2

Q. Bin this entry: A11U C21U
A. category 2

Q. Class (by measured self-cleavage) for G7C C26G
A. category 1

Q. For this variant, which bin applies? G38U G48C
A. category 3

Q. Quick check: band for U18C G41C
A. category 1
